Measured values drawn from patent US20230302150A1 for this set.

experimentalSystem: hTLR7 (Homo sapiens, UniProt Q9NYK1)
Construct: expressed in transfected cells; host or cells: HEK-Blue hTLR7 reporter cell line
Sequence (Q9NYK1 27-1049): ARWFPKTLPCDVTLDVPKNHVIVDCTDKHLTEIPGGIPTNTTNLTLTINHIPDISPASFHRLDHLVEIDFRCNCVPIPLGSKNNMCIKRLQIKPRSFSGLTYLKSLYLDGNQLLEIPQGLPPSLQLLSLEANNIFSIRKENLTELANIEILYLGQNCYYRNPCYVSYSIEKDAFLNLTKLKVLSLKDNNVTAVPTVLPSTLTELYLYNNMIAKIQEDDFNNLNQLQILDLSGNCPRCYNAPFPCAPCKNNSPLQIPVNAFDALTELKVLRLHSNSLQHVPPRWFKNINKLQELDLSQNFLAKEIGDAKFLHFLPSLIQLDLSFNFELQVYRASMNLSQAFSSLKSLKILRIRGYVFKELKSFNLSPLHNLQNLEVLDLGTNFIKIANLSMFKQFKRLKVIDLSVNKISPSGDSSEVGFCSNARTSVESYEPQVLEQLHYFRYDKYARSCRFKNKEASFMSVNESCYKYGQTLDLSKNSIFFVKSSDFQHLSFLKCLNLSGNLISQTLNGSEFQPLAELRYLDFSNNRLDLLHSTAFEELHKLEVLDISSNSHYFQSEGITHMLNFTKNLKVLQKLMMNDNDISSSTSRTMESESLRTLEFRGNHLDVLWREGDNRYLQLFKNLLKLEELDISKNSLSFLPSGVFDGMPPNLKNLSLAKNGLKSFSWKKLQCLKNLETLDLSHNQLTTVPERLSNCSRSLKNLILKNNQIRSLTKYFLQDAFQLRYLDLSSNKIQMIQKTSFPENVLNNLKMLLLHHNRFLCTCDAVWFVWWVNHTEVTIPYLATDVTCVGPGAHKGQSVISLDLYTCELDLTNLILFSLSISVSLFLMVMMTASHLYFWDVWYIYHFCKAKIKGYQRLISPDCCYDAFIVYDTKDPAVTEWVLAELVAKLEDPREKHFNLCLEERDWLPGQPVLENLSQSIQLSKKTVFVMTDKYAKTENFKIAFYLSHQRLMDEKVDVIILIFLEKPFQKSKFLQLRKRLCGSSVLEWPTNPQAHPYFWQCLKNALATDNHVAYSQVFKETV
experimentSummary: HEK-Blue hTLR7 reporter assay (NF-kB-induced SEAP, Quanti-Blue)
Assay type: cell-based
conditions: Table 11, TLR7 activities; read-out: EC50
Lab note: cut-off is 50 nM. Strictly less in EC50 is Criterion met. Exactly 50 nM or more is Criterion not met.

// below: answered molecules
molecule	assignedLabel
CCCCOc1nc(N)c2[nH]c(=O)n(Cc3ccc(CN4CCC(CCNC(=O)C(C)(C)NC)CC4)cc3)c2n1	Criterion not met
CCCCOc1nc(N)c2[nH]c(=O)n(Cc3ccc(CN4CCC(CCNC(=O)CCC(N)CCC(=O)NCCC5CCN(Cc6ccc(Cn7c(=O)[nH]c8c(N)nc(OCCCC)nc87)cc6)CC5)CC4)cc3)c2n1	Criterion not met
CCCCOc1nc(N)c2[nH]c(=O)n(Cc3ccc(CN4CCC(CCNC(=O)OC(C)(C)C)CC4)cc3)c2n1	Criterion met

Q: Given CCCCOc1nc(N)c2[nH]c(=O)n(Cc3ccc(CN4CCC(CCNC(=O)C(C)C)CC4)cc3)c2n1 , is recorded EC50 strictly lower than 50 nM?
Result: Criterion met

Q: # TODO verify EC50 < 50 nM strictly for this molecule: CCCCOc1nc(N)c2[nH]c(=O)n(Cc3ccc(CN4CCC(CCNC(=O)C(C)(C)C)CC4)cc3)c2n1
Result: Criterion met

Q: Hello, I'm reviewing records and need to know if EC50 of CCCCNc1nc(N)c2[nH]c(=O)n(Cc3ccc(OCCN(C)C)nc3)c2n1 [DSR-6434, reference compound] is below 50 nM. Could you check?
Result: Criterion met
